Data origin: PubChem BioAssay AID463229

- System: INS-1E rat beta cells, no cytokines, CellTiter-Glo ATP, 48 h
- experiment_summary: cytokine-free beta-cell viability effect – INS-1E rat cells, ATP luminescence, cherry pick, counter-screen for beta-cell apoptosis protection project, dose response (AID 463229)
The source made the active and inactive calls.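 How the source made its calls: active means compounds raising the signal whose fitted half-maximal concentration is at or below their top tested dose (cut at about 25 µM in these data); inconclusive means flat fit at 30 to 70% activity, or a poor fit; inactive means the rest.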
Returns: one label drawn from YES (active), NO (inactive)

Assay outcome for Cc1cc(C)c2c(ccc3cccc[n+]32)c1 : what was it? YES

Assay outcome for O=C([O-])c1cc(-c2ccccc2)cc(-c2ccccc2)[n+]1Cc1ccccc1 : what was it? YES

Assay outcome for CCOc1ccc(-c2csc(/C(C#N)=C\c3ccc(O)c([N+](=O)[O-])c3)n2)cc1 : what was it? YES

Assay outcome for N#CCC(=O)N/N=C/c1cc(-c2ccccc2)n(-c2ccc(Cl)cc2)c1-c1ccccc1 : what was it? YES

Assay outcome for COc1cnc(-c2ccccn2)nc1N(C)C : what was it? YES

Assay outcome for CCOC(=O)c1c(NC(=O)C[n+]2ccc(Cc3ccccc3)cc2)sc(C)c1C : what was it? YES

Assay outcome for COc1ccc2c(c1)C(=O)[C@@H](O)[C@H](c1ccc(OC)c(Br)c1)O2 : what was it? YES

Assay outcome for CC(C)(C)C(=O)NC(=S)NNC(=O)c1ccc(-c2ccccc2)cc1 : what was it? YES

Assay outcome for O=C(Nc1ccc([N+](=O)[O-])cc1)Nc1ccc(Cl)cc1F : what was it? YES

Assay outcome for O=C1/C(=N\S(=O)(=O)c2cccs2)C([n+]2cccc(Cc3ccccc3)c2)=C([O-])c2ccccc21 : what was it? YES

Assay outcome for Cc1cccc(N=Nc2ccc(O)c3ncccc23)c1 : what was it? YES

Assay outcome for N#Cc1ccc(-c2ccc(Cl)cc2)nc1SCC(=O)c1cccc(Cl)c1 : what was it? YES

Assay outcome for C#CCOCCOCCOCCNc1nc(N2CCN(C(=O)CCCCCCCCCCNC(=O)[C@H](CCCCN)n3cc(C)nn3)CC2)nc(N2CCN(C(=O)CCCCCCCCCCNC(=O)[C@H](CCCN=C(N)N)n3cc(C[C@@H](C)CC)nn3)CC2)n1 : what was it? YES

Assay outcome for CCOC(=O)c1nc(NNC(=O)c2ccc([N+](=O)[O-])cc2)sc1C : what was it? YES

Assay outcome for O=C1/C(=C/c2ccc(N3CCOCC3)o2)SC(=Nc2ccccc2)N1CCc1c[nH]c2ccccc12 : what was it? NO

Assay outcome for CCCCCCCCCn1c2c(c(=N)c3c1CCC3)CCC2 : what was it? YES

Assay outcome for CC(=O)Nc1ccc(S(=O)(=O)Nc2ccc(N3CCCCC3)cc2)cc1 : what was it? YES

Assay outcome for Cc1cc2nc(NCCCO)n(CC(=O)c3cc(C(C)(C)C)c(O)c(C(C)(C)C)c3)c2cc1C : what was it? YES

Assay outcome for COc1ccc(C)cc1Nc1n[n+](-c2ccccc2)c(-c2c(OC)ccc3ccccc23)s1 : what was it? YES

Assay outcome for CN1/C(=C\C=N\NC(=O)c2ccc(O)cc2)C(C)(C)c2ccccc21 : what was it? YES
